target: Estrogen receptor (Homo sapiens) (UniProt P03372); assay: blockers of SRC-1 peptide recruitment to ERα – biochemical, TR-FRET, ERα LBD, estradiol-bound, primary screen (AID 629); conditions: TR-FRET ER-alpha LBD / SRC-1 peptide, at 25.6 µM;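 also: 0% = receptor plus peptide control and 100% = peptide only without receptor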
Sequence (P03372 whole entry, looked up, the tested form may be a part): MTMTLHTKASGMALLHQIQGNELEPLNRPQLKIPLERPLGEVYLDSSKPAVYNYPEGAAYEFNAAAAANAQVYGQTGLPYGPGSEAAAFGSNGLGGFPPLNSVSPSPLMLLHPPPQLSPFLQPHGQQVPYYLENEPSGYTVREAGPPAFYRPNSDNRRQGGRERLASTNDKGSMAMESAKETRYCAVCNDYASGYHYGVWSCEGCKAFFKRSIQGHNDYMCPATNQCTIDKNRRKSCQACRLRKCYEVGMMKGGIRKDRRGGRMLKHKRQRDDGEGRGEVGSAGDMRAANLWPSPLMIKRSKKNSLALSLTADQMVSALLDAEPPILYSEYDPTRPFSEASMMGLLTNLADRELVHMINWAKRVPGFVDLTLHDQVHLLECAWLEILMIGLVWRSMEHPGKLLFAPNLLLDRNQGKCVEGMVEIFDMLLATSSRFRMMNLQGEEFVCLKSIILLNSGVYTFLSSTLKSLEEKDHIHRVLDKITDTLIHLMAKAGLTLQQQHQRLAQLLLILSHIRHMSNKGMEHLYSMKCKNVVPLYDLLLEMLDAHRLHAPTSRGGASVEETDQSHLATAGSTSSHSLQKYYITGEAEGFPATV
About 1,400 (1.6%) of roughly 86,000 compounds were called active. Rule as the data show it: active = inhibition above about 50%; inactive = the rest. What follows is part of a selection rich in actives, with near analogues and random picks from the rest.
// allowed return values: yes for active, no for inactive

INSERT INTO results (molecule, assignedcategory) VALUES
  ('O=c1c2ccccc2nnn1CSc1nnnn1-c1ccccc1', 'no'),
  ('O=C(Cc1cccc2ccccc12)Nc1ccc2oc(-c3ccccc3)nc2c1', 'no');

In this assay, the call recorded for "O=c1c2ccccc2nc(CSc2nnnn2-c2ccccc2)n1-c1ccccc1" was what?
yes

Let us now turn to "O=C(CCN1c2ccccc2Sc2ccccc21)Nc1ccccc1"
no

Let us now turn to CC1Cc2ccccc2N1C(=O)CSc1nc2ccccc2o1 (stereo not drawn)
no

Let us now turn to "COc1ccc(N2CCN(C(=O)CSc3nc4cc(OC)c(OC)cc4cc3C#N)CC2)cc1"
yes

Let us now turn to CC1Cc2ccccc2N1C(=O)CSc1nnc(-c2ccc(S(=O)(=O)N3CCCCC3)cc2)o1 (stereo not drawn)
yes

Let us now turn to "COc1ccc(-n2nnnc2SCC(=O)Nc2ccccc2)cc1"
no

Let us now turn to "CSc1nc2nc3c(c(=O)n2[nH]1)CCC3"
no

====

biological target: Estrogen receptor (Homo sapiens); experiment: blockers of SRC-1 peptide recruitment to ERα – biochemical, TR-FRET, ERα LBD, estradiol-bound, primary screen (AID 629); settings: TR-FRET ER-alpha LBD / SRC-1 peptide, at 25.6 µM;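 also: 0% = receptor plus peptide control and 100% = peptide only without receptor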
Screen size: about 86,000 compounds; about 1,400 (1.6%) were called active. Rule as the data show it: active = inhibition above about 50%; inactive = the rest. The sample as a whole holds a higher share of actives than the screen did.
// allowed return values: 1 (yes) for active, 0 (no) for inactive

INSERT INTO assay_data (compound, assignedcategory) VALUES
  ('CCOC(=O)N1CCN(C(c2cccnc2)c2ccc3cccnc3c2O)CC1 (stereo unspecified)', '1 (yes)'),
  ('Cc1nc(N2CCN(c3ncccn3)CC2)c2oc3ccccc3c2n1', '1 (yes)'),
  ('CCOC(=O)N1CCN(C(=O)CSc2ccc(Cl)cc2)CC1', '0 (no)');

In this assay, the call recorded for "O=C(OCC#CCSc1nnc(-c2ccncc2)o1)c1sc2ccccc2c1Cl" was what?
0 (no)

Let us now turn to "CCc1nc(N2CCN(c3nc(C)cc(C)n3)CC2)c2oc3ccccc3c2n1"
0 (no)

Let us now turn to CCN1CCN(C(c2cccnc2)c2cc(Cl)c3cccnc3c2O)CC1 (stereo unspecified)
1 (yes)

====

biological target: Estrogen receptor (Homo sapiens); assay: blockers of SRC-1 peptide recruitment to ERα – biochemical, TR-FRET, ERα LBD, estradiol-bound, primary screen (AID 629); conditions: TR-FRET ER-alpha LBD / SRC-1 peptide, at 25.6 µM, active compounds read high;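 also: 0% = receptor plus peptide control and 100% = peptide only without receptor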
In all, about 86,000 compounds went through this assay and about 1,400 (1.6%) were called active. Many of the other results were omitted from the sample, so actives are more common in it than they were.
endpointName: inhibition

INSERT INTO assay_data (compound, testsystem, result) VALUES
  ('O=C(CN1CCN(S(=O)(=O)/C=C/c2ccccc2)CC1)NC(=O)NCc1ccco1', 'Estrogen receptor (Homo sapiens)', '55% [fluorescence artefact?] (active)');

Okay, now this compound:
# get_value(readout='inhibition', item= "O=C(Cc1c[nH]c2ccccc12)OCCOC(=O)Cc1c[nH]c2ccccc12" )
-4.73% (inactive)

====

target: Estrogen receptor (Homo sapiens); test: blockers of SRC-1 peptide recruitment to ERα – biochemical, TR-FRET, ERα LBD, estradiol-bound, primary screen (AID 629); details: TR-FRET ER-alpha LBD / SRC-1 peptide, at 25.6 µM;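 also: 0% = receptor plus peptide control and 100% = peptide only without receptor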
The campaign covered roughly 86,000 compounds. About 1,400 (1.6%) were called active. No stated cut-off is given here; in the data, active means inhibition above about 50%; inactive means the rest. Only a selection was taken, and actives are over-represented in it overall.
// allowed return values: active, inactive

Some solved entries appear below for comparison.
INSERT INTO measurements (compound, testsystem, assignedcategory) VALUES
  ('O=S(=O)(NCCNS(=O)(=O)c1ccccc1)c1ccccc1', 'Estrogen receptor (Homo sapiens)', 'inactive'),
  ('COc1ccc(CN2CCn3ncc(C(=O)Nc4ccc(Cl)cc4Cl)c3C2=O)cc1', 'Estrogen receptor (Homo sapiens)', 'active'),
  ('O=c1nc2s/c(=C\c3ccco3)c(=O)n2nc1Cc1ccccc1', 'Estrogen receptor (Homo sapiens)', 'inactive'),
  ('COc1cccc(NC(=O)Cc2ccc(C)cc2)c1', 'Estrogen receptor (Homo sapiens)', 'inactive'),
  ('COC(=O)c1ccccc1NC(=O)CN(Cc1ccc(Cl)cc1)S(C)(=O)=O', 'Estrogen receptor (Homo sapiens)', 'inactive');

Then this compound:
In this assay, the call recorded for Cc1ccc(NC(=S)NC(NC(=O)Cc2cccc3ccccc23)C(Cl)(Cl)Cl)cc1 (stereo not given) was what?
active

====

target: Estrogen receptor (Homo sapiens) (UniProt P03372); assay: blockers of SRC-1 peptide recruitment to ERα – biochemical, TR-FRET, ERα LBD, estradiol-bound, primary screen (AID 629); conditions: TR-FRET ER-alpha LBD / SRC-1 peptide, at 25.6 µM, active compounds read high;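 also: 0% = receptor plus peptide control and 100% = peptide only without receptor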
The campaign covered roughly 86,000 compounds. About 1,400 (1.6%) were called active. The entries come from a sample that favours actives as a whole.
endpointName: inhibition (%)
Number only, in %; omit the unit.

INSERT INTO results (compound, units, quantitativereadout) VALUES
  ('CCCc1noc2c1/C(=N\O)CCC2', '%', -11.6),
  ('COC(=O)C1=C(C(=O)OC)C2(OC1c1ccc(Br)cc1)C(=O)c1ccccc1C2=O (stereo unspecified)', '%', -2.52),
  ('Cc1cccc(-c2nc3c(c(SCC(=O)N4CCOCC4)n2)CCCC3)c1', '%', -17.1),
  ('CN(C)c1ccnc2sc3c(=O)n(-c4ccc(Cl)cc4)cnc3c12', '%', 42.5),
  ('CCCCNC(=O)C1(c2ccc(OC)cc2)CCOCC1', '%', 25.4),
  ('CNC(=O)c1c(NC(NC(=O)c2ccco2)C(=O)c2ccc(Cl)cc2)sc2c1CCCC2 (stereo unspecified)', '%', -3.84),
  ('CCOC(=O)c1c(NC(=O)c2ccc(Br)o2)sc2c1CCCC2', '%', 7.77),
  ('NC1=NC(=O)C2(COC(c3ccccc3Cl)OC2)S1 (stereo unspecified)', '%', -0.98);

# get_value(readout='inhibition', item= CCC(c1nnnn1C(C)(C)C)N(Cc1cc2cccc(C)c2n2nnnc12)C1CCCC1 (stereo unspecified) )
-3.95

Let us now turn to O=C(NCc1ccccc1)[C@@H]1CSC2c3ccccc3C(=O)N21 (stereo partly specified)
6.25

Let us now turn to "C=CCc1ccc(OCCOc2cccc(/C=N/n3cnnc3)c2)c(OC)c1"
-8.6

====

target: Estrogen receptor (Homo sapiens); experiment: blockers of SRC-1 peptide recruitment to ERα – biochemical, TR-FRET, ERα LBD, estradiol-bound, primary screen (AID 629); conditions: TR-FRET ER-alpha LBD / SRC-1 peptide, at 25.6 µM, active compounds read high;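 also: 0% = receptor plus peptide control and 100% = peptide only without receptor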
Screen size: about 86,000 compounds; about 1,400 (1.6%) were called active. The sample holds actives, similar compounds and a random draw of the others, so the mix is not that of the screen.
endpointName: inhibition (%)
Number only, in %; omit the unit.

Solved cases below.
INSERT INTO measurements (molecule, quantitativereadout) VALUES
  ('Cc1nc2c(c(=O)n1Cc1ccco1)c1nc3ccccc3nc1n2Cc1ccccc1', 79.5),
  ('CNc1nc(SC)nc(N(C#N)CC(=O)OC)n1', -12.1),
  ('Cc1cc(C)c2c(n1)nn1c(-n3ccnc3)cc(C)nc21', 4.13),
  ('Oc1c(CN2CCN(c3ccc(F)cc3)CC2)cc(Cl)c2cccnc12', -0.01),
  ('CC(=O)C1=C(C)NC(C)=C(C(C)=O)C1c1cn(-c2ccccc2)nc1-c1cccs1', -18.1);

# get_value(readout='inhibition', item= "O=C(c1ccc2c(c1)OCO2)N1CCOCC1" )
-17.2

Let us now turn to COc1ccc(-n2c(SCC(=O)Nc3ccc4c(c3)OCO4)nnc2C(C)N2CCCCC2)cc1 (centres undefined)
55.2

Let us now turn to "Cc1ccc(-n2c(SCC(=O)Nc3ccc4c(c3)OCO4)nnc2-c2ccccn2)cc1"
-7.91

Let us now turn to "COCCCn1c(SCC(=O)Nc2ccccc2)nnc1-c1ccncc1"
-1.59

====

molecular target: Estrogen receptor (Homo sapiens) (UniProt P03372); assay: blockers of SRC-1 peptide recruitment to ERα – biochemical, TR-FRET, ERα LBD, estradiol-bound, primary screen (AID 629); details: TR-FRET ER-alpha LBD / SRC-1 peptide, at 25.6 µM;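 also: 0% = receptor plus peptide control and 100% = peptide only without receptor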
Screen size: about 86,000 compounds; about 1,400 (1.6%) were called active. Cut-off read from the data, not from the text of the source: active = inhibition above about 50%; inactive = the rest. The entries come from a sample that favours actives as a whole.
// allowed return values: active, inactive

Some solved entries appear below for comparison.
INSERT INTO results (molecule, assignedcategory) VALUES
  ('Cc1ccc(-c2noc(CSc3nnnn3-c3ccccc3)n2)cc1', 'inactive'),
  ('CCOC(=O)Cc1csc(NC(=O)CSc2nnc(-c3cccnc3)n2Cc2ccco2)n1', 'inactive'),
  ('CCOc1ccccc1C(=O)NC1CC2CCCC(C1)N2Cc1ccccc1 (centres undefined)', 'inactive');

In this assay, the call recorded for "CSc1ccc(S(=O)(=O)NC2CCCCC2)cc1" was what?
inactive

Let us now turn to "CSc1ccc(S(=O)(=O)Nc2cccc(F)c2)cc1"
active

Let us now turn to O=C(CCN1CCc2ccccc2C(O)(c2ccccc2)C1)c1ccc2c(c1)OCCO2 (centres undefined)
inactive

Let us now turn to "CCOC(=O)N1CCN(C(=O)c2nn(-c3ccc(C)cc3)c(=O)c3c2c2ccccc2n3C)CC1"
active

Let us now turn to "CCOC(=O)c1ccccc1NS(=O)(=O)c1ccc(OC)cc1"
inactive

Let us now turn to "CCO/C([O-])=N/c1c[n+](N2CCOCC2)no1"
active

Let us now turn to "Cc1cc(C)c(NC(=O)CN2CCOCCOCCOCCOCC2)c(C)c1"
inactive

Let us now turn to "O=C(CN1C(=O)CC(c2ccccc2)=Nc2ccccc21)NC1CCCCC1"
inactive

Let us now turn to "O=C(Nc1ccc2oc(-c3ccc4ccccc4c3)nc2c1)c1cccs1"
active

Let us now turn to "CC(=O)Nc1ccc(S(=O)(=O)Nc2cccc(NC(=O)C(C)(C)C)c2)cc1"
inactive

Let us now turn to "Oc1ccc(-c2onc3ccc(Cl)cc23)cc1"
inactive
